Measured ELISA (absorbance at 370 nm in relation to 2D8), 2nd experiment by item
Biological target: T1, recombinant soluble human type 1 IL-1 receptor (extracellular domain, glycosylated) (human, UniProt P14778 21-333, N-glycosylated (from SF9 insect cells); biotinylated in the ELISA of Examples 2 and 4c)
T1 construct: also called hIL-1R; rshIL-1R
T1 sequence: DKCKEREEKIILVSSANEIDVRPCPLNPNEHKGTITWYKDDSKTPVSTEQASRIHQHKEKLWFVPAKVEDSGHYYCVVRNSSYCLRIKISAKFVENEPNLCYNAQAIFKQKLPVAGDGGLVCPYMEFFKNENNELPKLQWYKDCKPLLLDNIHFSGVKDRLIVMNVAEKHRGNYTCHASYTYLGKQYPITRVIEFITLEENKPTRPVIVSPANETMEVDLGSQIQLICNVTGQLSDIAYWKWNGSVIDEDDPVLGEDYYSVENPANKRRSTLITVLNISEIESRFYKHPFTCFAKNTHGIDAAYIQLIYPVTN
Assay: ELISA on biotinylated human IL-1R on streptavidin plates

Examples with their reported ELISA (absorbance at 370 nm in relation to 2D8), 2nd experiment follow.
DEI4/5 (antibody, V domains shown, also called combination of HURDIVHv4 and HURDIVKv5) VH: QLQLQESGPGLVKPSQTLSLTCTVSGLSLTSNSITWIRQPPGKGPEWMGMIWSNGDTDYNSAFTSRFTISRDNSKNTLYLQMNSLKTEDTAVYYCARYNYYFDYWGQGTLVTVSS VL: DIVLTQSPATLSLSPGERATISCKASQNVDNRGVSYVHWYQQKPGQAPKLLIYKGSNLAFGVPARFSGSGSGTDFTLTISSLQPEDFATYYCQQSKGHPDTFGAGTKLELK: 2.2 relative to 2D8
DEI5/5 (antibody, V domains shown, also called combination of HURDIVHv5 and HURDIVKv5) VH: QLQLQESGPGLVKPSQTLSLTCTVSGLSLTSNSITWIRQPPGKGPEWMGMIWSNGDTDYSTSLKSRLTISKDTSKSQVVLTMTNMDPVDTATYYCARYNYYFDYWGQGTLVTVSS VL: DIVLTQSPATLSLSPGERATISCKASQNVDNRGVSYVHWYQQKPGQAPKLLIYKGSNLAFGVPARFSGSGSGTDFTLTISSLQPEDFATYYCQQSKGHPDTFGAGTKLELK: 3.4 relative to 2D8

Kindly consider the entry below.
Request: What ELISA (absorbance at 370 nm in relation to 2D8), 2nd experiment value was documented for this binder, DEI2/8 (antibody, V domains shown, also called combination of HURDIVHv2 and HURDIVKv8) VH: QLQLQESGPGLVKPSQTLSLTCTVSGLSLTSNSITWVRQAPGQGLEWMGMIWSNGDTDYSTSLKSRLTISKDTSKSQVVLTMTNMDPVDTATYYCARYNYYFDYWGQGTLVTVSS VL: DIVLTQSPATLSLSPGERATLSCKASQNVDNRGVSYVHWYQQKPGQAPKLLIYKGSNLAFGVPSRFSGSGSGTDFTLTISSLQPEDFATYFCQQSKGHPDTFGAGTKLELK ?
Response: 2.6 relative to 2D8
